Below, each entry is listed alongside its reported inhibition at 100 µM.
# test_target: 3CL Protease (M^pro) (SARS-CoV-2) (Severe acute respiratory syndrome coronavirus 2)
# experiment_summary: biochemical
# Assay type: biochemical
# condition_context: read-out: M^pro activity inhibited compared with the negative control

{"columns": ["compound", "unit_annotation", "inhibition at 100 µM"],
 "data": [
  ["O=C(O[C@@H]1Cc2c(O)cc(O)cc2O[C@H]1c1cc(O)c(O)c(O)c1)c1cc(O)c(O)c(O)c1 [GCG, (–)-gallocatechin-3-O-gallate]", "%", 50],
  ["O=C(O[C@@H]1Cc2c(O)cc(O)cc2O[C@H]1c1ccc(O)c(O)c1)c1cc(O)c(O)c(O)c1 [CAG, (+)-catechin-3-O-gallate]", "%", 40],
  ["O=C(OC1Cc2c(O)cc(O)cc2OC1c1cc(O)c(O)c(O)c1)c1cc(O)c(O)c(O)c1 (single isomer, unassigned; (-)) [EGCG, (–)-epigallocatechin-3-O-gallate]", "%", 44.4],
  ["O=C(O[C@@H]1Cc2c(O)cc(O)cc2O[C@@H]1c1ccc(O)c(O)c1)c1cc(O)c(O)c(O)c1 [ECG, (–)-epicatechin-3-O-gallate]", "%", 40]
]}

---

For 3CL Protease (M^pro) (SARS-CoV-2) (Severe acute respiratory syndrome coronavirus 2), measured IC50 is reported for the entries below.

{"columns": ["compound", "test_target", "IC50 / µM"],
 "data": [
  ["Oc1cc(O)c2c(c1)O[C@H](c1ccc(O)c(O)c1)[C@H](O)[C@H]2c1c(O)cc(O)c2c1O[C@H](c1ccc(O)c(O)c1)[C@H](O)C2", "3CL Protease (M^pro) (SARS-CoV-2) (Severe acute respiratory syndrome coronavirus 2)", 75.3],
  ["O=C(O[C@@H]1Cc2c(O)cc(O)cc2O[C@@H]1c1ccc(O)c(O)c1)c1cc(O)c(O)c(O)c1 [ECG, (–)-epicatechin-3-O-gallate]", "3CL Protease (M^pro) (SARS-CoV-2) (Severe acute respiratory syndrome coronavirus 2)", 5.21]
]}
